Target: T1, chimeric Hu-Leptin/Mu-EPO receptor (human; mouse, UniProt P48357 22-839; P14753 250-507)
T1 sequence (looked up): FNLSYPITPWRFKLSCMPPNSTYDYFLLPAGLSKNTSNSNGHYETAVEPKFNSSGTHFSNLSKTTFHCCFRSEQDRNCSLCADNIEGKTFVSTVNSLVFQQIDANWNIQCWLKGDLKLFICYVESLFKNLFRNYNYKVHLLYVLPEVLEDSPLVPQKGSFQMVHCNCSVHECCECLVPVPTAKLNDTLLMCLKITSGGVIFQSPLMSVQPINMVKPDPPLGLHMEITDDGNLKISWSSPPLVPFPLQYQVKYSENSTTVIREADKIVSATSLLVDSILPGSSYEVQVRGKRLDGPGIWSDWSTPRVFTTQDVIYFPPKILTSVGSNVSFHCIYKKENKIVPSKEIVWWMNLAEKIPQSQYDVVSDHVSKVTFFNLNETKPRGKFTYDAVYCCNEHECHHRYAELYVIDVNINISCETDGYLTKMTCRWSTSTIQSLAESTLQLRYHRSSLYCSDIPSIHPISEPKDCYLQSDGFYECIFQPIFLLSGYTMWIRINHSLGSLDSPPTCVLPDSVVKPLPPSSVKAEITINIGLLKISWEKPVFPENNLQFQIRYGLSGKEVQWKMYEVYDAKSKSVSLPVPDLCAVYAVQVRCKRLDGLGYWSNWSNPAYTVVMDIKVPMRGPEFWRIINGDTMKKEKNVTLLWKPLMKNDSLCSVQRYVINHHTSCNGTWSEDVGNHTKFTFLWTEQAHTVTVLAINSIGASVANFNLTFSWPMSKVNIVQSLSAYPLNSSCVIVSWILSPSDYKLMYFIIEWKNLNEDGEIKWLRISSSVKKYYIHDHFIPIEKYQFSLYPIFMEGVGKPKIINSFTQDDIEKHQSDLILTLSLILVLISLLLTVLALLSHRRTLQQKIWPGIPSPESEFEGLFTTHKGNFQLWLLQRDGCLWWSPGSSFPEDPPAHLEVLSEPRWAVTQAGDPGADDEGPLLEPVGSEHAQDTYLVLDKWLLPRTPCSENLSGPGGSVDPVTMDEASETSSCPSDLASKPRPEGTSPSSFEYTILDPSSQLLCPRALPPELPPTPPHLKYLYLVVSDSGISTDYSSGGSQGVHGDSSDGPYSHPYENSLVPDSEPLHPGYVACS
Experiment: cell-based or functional assay
PROPERTY_NAME: EC50 nM (Obeca STAT5 assay) (nM)

>>> measured_number("Cmpd 16 (SEQ ID NO: 62) (other) MLAEAKVLANRELDKYGVSDFYKRLINKAKTVEGVEALKLHILAALPTGPIQRVQDDTKTLIKTIITRINDISPPQGVCSPRVAGLDFIPRVQSVRTLSGMDQILATYQQILTSLQSRNVIQISNDLENLRDLLHVLAFSKSCPVPRARGSDTIKGLGNVLRASVHSTEVVALSRLKAALQDMLRQLDRNPGC")
0.411
>>> measured_number("Cmpd 3 (SEQ ID NO: 55) (other) MVPIQKVQDDTKTLIKTIVTRINDISHTQSVSSKQKVTGLEFIPGLHPILTLSKMDQTLAVYQQILTSMPSRNVIQISNDLENLRDLLHVLAFSKSCHLPQASGLETLESLGGVLEASGYSTEVVALSRLQGSLQDMLQQLDLSPGCTGGGGSASLAEAKVLANRELDKYGVSDFYKRLINKAKTVEGVEALKLHILAALP")
0.095
>>> measured_number("Cmpd 18 (SEQ ID NO: 64) (other) MLAEAKVLANRELDKYGVSDYYKNIINRAKTVEGVRALKLHILAALPTGGGGSGGGSGGGSGGGSASVPIQKVQDDTKTLIKTIVTRINDISHTQSVSSKQKVTGLEFIPGLHPILTLSKMDQTLAVYQQILTSMPSRNVIQISNDLENLRDLLHVLAFSKSCHLPQASGLETLESLGGVLEASGYSTEVVALSRLQGSLQDMLQQLDLSPGC")
0.322
>>> measured_number("Compound 15 (SEQ ID NO: 61) (other, also called Cmpd 15; ABD1-HuSeal) MLAEAKVLANRELDKYGVSDFYKRLINKAKTVEGVEALKLHILAALPTGGGGSGGGSGGGSGGGSASPIQRVQDDTKTLIKTIITRINDISPPQGVSSRPRVAGLDFIPRVQSVRTLSGMDQILATYQQILTSLQSRNVIQISNDLENLRDLLHVLAFSKSCPVPRARGSDTIKGLGNVLRASVHSTEVVALSRLKAALQDMLRQLDRNPGC")
0.427
>>> measured_number("Cmpd 9 (SEQ ID NO: 57) (other) MLAEAKVLANRELDKYGVSDFYKRLINKAKTVEGVEALKLHILAALPTGGGGSGGGSGGGSGGGSASISIEKIQADTKTLTKTIITRIIQLSTQNGVSTDQRVSGLDFIPGNQQFQNLADMDQTLAVYQQILSSLPMPDRTQISNDLENLRSLFALLATLKNCPFTRSDGLDTMEIWGGIVEESLYSTEVVTLDRLRKSLKNIEKQLDHIQGC")
0.185
>>> measured_number("Compound 2 (SEQ ID NO: 54) (other, also called Cmpd 2; ABD1-A500) MLAEAKVLANRELDKYGVSDFYKRLINKAKTVEGVEALKLHILAALPTGGGGSGGGSGGGSGGGSASVPIQKVQDDTKTLIKTIVTRINDISHTQSVSSKQKVTGLEFIPGLHPILTLSKMDQTLAVYQQILTSMPSRNVIQISNDLENLRDLLHVLAFSKSCHLPQASGLETLESLGGVLEASGYSTEVVALSRLQGSLQDMLQQLDLSPGC")
0.53
>>> measured_number("Cmpd 4 (SEQ ID NO: 56) (other) MVPIQKVQDDTKTLIKTIVTRINDISHTQSVSSKQKVTGLEFIPGLHPILTLSKMDQTLAVYQQILTSMPSRNVIQISNDLENLRDLLHVLAFSKSCHLPQASGLETLESLGGVLEASGYSTEVVALSRLQGSLQDMLQQLDLSPGCTGGGGSGGGSGGGSGGGSASLAEAKVLANRELDKYGVSDFYKRLINKAKTVEGVEALKLHILAALP")
0.103
>>> measured_number("Cmpd 1 (SEQ ID NO: 53) (other) MLAEAKVLANRELDKYGVSDFYKRLINKAKTVEGVEALKLHILAALPTGGGGASVPIQKVQDDTKTLIKTIVTRINDISHTQSVSSKQKVTGLEFIPGLHPILTLSKMDQTLAVYQQILTSMPSRNVIQISNDLENLRDLLHVLAFSKSCHLPQASGLETLESLGGVLEASGYSTEVVALSRLQGSLQDMLQQLDLSPGC")
0.628
>>> measured_number("Cmpd 14 (SEQ ID NO: 60) (other) MLAEAKVLANRELDKYGVSDFYKRLINKAKTVEGVEALKLHILAALPTGGGGSGGGSGGGSGGGSASPIQRVQDDTKTLIKTIITRINDISPPQGVCSRPRVAGLDFIPRVQSVRTLSGMDQILATYQQILTSLQSRNVIQISNDLENLRDLLHVLAFSKSCPVPRARGSDTIKGLGNVLRASVHSTEVVALSRLKAALQDMLRQLDRNPGC")
0.406
